Experiment: Bioavailability in cynomolgus monkey by LC-MS/MS analysis
Format: ADME, organism-based, Macaca fascicularis
Details: in vivo
attribute measured: bioavailability

Prompt: What value of bioavailability has been reported for the following compound? CNCc1ccc(-c2cc3cc(F)cc(C(N)=O)c3o2)cc1
Completion: 40 to 100%

====

Assay: Aqueous solubility of compound
Type: physicochemical
attribute measured: solubility

Prompt: Look at this molecule and give its reported solubility. CNCc1ccc(-c2cc3cc(F)cc(C(N)=O)c3o2)cc1
Completion: > 35 mg/mL

====

Test system: MDA-MB-436
Experiment: Antiproliferative activity against human MDA-MB-436 cells
Type: functional, cell-based
attribute measured: IC50 (nM)
# output: bare number, implied unit nM

Prompt: I'd like to know its IC50. The molecule in question is CN(C)CC/C=C1\c2ccccc2COc2ccc(CC(=O)NN)cc21
Completion: 736

====

Target: Poly [ADP-ribose] polymerase 2 (Homo sapiens, UniProt Q9UGN5)
Sequence (Q9UGN5 whole entry): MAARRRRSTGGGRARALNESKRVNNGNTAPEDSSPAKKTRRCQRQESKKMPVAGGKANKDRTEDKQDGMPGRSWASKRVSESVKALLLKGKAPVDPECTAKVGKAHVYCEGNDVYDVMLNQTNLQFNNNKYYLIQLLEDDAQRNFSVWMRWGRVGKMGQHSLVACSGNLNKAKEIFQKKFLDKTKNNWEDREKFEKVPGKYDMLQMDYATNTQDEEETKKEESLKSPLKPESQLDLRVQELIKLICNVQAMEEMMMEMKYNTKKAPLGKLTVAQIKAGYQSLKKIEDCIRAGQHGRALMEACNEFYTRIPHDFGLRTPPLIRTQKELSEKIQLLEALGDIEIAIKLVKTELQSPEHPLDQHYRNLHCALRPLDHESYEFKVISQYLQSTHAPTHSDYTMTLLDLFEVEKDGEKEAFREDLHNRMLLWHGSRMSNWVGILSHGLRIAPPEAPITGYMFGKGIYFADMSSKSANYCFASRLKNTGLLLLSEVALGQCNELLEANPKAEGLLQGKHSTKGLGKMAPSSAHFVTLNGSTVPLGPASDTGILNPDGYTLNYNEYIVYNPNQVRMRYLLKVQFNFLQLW
Test: Inhibition of PARP2 (unknown origin) using histone as substrate after 1 hr by ELISA
attribute measured: pIC50
Note on pIC50: it is the negative log10 of concentration, concentration in mol/L.

Prompt: Return reported pIC50; argument: CC(C)(C)[Si](C)(C)OCCCN1CCN(C(=O)c2cc(Cn3c(=O)[nH]c(=O)c4ccccc43)ccc2F)CC1=O
Completion: 7.95

====

Target: Poly [ADP-ribose] polymerase tankyrase-2 (Homo sapiens, UniProt Q9H2K2)
Sequence (Q9H2K2 whole entry): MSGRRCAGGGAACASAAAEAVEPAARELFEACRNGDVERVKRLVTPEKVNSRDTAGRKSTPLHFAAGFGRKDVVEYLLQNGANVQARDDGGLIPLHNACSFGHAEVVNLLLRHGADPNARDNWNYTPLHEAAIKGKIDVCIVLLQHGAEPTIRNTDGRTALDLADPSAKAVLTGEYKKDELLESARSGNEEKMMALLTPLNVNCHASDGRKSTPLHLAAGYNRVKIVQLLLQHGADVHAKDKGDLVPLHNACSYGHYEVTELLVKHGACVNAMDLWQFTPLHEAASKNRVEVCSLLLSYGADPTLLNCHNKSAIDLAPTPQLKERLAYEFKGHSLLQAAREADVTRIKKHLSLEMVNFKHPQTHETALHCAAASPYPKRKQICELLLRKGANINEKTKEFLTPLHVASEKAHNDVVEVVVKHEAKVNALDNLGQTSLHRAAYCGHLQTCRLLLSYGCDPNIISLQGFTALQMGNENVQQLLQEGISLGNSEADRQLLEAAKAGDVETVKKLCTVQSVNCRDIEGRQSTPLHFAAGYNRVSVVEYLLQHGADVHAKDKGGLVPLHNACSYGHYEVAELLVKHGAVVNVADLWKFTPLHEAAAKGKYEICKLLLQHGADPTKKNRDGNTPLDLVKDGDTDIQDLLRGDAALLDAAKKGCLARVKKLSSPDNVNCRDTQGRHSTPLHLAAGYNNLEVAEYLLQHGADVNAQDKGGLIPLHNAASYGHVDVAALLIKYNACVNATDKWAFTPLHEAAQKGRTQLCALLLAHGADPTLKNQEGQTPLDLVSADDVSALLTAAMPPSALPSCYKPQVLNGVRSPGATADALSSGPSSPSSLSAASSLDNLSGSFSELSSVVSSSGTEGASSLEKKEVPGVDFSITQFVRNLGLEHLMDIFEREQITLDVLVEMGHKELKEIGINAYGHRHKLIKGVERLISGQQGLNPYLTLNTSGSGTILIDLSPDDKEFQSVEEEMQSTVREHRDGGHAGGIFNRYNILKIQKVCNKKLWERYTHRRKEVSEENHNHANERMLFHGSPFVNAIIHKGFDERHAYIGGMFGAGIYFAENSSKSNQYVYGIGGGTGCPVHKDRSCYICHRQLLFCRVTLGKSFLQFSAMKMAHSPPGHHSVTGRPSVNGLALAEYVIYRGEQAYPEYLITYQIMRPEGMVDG
Experiment: Inhibition of human recombinant TNKS2 by chemiluminescence assay
attribute measured: pIC50
Just so you know, pIC50 here is -log10 of the concentration in molar units; reply with that number alone.

Prompt: Form field: reported pIC50 of CC(C)n1cc2c(n1)CN(C(=O)c1cc(Cc3n[nH]c(=O)c4ccccc34)ccc1F)C2
Completion: 6.54

====

Catalogue of compounds with associated IC50
Target: Poly [ADP-ribose] polymerase 1 (Homo sapiens)
Sequence (P09874 whole entry): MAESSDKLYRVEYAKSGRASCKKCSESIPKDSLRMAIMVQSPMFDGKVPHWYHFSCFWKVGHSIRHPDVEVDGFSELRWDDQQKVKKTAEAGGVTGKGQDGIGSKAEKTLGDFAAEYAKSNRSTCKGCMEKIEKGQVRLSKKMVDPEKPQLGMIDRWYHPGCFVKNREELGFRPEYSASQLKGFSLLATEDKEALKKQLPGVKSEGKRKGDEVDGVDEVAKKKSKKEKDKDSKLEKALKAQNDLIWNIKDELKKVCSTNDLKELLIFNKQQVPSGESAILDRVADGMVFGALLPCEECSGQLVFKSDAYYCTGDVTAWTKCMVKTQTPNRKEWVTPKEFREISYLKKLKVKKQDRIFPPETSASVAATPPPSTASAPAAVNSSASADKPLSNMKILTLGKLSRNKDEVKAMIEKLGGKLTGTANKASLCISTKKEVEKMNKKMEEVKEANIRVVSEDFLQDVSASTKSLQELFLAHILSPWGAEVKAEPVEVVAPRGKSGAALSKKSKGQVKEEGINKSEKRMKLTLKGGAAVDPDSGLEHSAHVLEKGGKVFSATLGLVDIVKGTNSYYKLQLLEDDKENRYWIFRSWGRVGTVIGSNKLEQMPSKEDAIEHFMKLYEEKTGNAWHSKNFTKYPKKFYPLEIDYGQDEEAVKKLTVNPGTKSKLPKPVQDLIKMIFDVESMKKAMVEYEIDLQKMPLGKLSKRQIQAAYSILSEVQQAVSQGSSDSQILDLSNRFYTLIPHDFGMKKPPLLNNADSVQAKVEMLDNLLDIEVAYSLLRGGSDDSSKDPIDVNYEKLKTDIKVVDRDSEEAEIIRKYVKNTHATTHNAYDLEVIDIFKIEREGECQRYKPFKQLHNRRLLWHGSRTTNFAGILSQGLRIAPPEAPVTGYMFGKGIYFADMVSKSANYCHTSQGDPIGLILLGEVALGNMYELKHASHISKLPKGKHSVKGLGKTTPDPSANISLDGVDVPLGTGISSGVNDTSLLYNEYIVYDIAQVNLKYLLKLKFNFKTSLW
Assay: Inhibition of human recombinant PARP1 using radiolabeled [3H]substrate after 1 mins by scintillation counting analysis
Number first, unit second: that is the form wanted.

C[C@@H]1NC(=O)[C@H](C)NC1=O
900 µM

Prompt: Suppose we examine the compound C[C@@H]1NC(=O)[C@@H](C)NC1=O ; what IC50 value has been reported?
Completion: 4200 µM

====

Experiment: Protein binding in plasma (unknown origin)
Format: ADME, cell-free
Settings: read-out: PPB (converted)
attribute measured: fraction unbound

Prompt: Give its fraction unbound value. Item: CNCc1ccc(-c2[nH]c3cc(F)cc4c3c2CCNC4=O)cc1 [RUCAPARIB]
Completion: 0.3

Values compiled from ChEMBL document CHEMBL4480392.
